Source of measurements: patent US20130230533A1

Target: T1, Dimeric human CD48-mFc (human)
T1 construct: the whole entry is the construct; also called hCD48-mFc
T1 chain: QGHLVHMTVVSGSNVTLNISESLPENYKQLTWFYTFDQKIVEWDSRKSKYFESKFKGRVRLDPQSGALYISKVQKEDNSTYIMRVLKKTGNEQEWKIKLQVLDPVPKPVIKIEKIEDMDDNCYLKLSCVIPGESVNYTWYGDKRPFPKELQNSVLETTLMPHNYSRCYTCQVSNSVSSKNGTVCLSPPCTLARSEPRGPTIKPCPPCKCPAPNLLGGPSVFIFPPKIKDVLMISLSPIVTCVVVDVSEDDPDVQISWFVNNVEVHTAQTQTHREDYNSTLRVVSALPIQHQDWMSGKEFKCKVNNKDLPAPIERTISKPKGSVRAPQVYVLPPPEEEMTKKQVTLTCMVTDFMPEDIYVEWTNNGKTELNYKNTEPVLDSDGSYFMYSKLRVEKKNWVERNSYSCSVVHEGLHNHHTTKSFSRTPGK
Assay: SPR (Biacore), antibody captured by anti-Fc, CD48 in solution, 37 C
Decide using T½ alone. Strictly below 3 h: Met. Equal to or above 3 h: Not met.

- H2M1713N (antibody, mouse IgG2, V domains shown, Human variable domains, mouse IgG2 Fc (H2M)) VH: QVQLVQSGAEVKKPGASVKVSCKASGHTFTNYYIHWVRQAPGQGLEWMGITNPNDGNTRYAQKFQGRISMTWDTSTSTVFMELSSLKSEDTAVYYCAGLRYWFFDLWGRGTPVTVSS VL: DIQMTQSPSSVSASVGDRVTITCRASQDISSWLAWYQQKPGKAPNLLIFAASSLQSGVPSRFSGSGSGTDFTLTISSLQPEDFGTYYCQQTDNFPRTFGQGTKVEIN: Met
- H4H1772P (antibody, human IgG4, V domains shown, Human IgG4 Fc (H4H)) VH: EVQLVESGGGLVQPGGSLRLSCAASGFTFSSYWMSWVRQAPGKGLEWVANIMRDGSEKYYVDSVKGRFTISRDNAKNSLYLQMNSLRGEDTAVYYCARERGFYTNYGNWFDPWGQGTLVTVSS VL: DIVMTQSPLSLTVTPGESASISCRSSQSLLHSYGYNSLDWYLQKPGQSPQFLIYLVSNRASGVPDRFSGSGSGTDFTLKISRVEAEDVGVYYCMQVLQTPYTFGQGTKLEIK: Not met
- H4H1770P (antibody, human IgG4, V domains shown, Human IgG4 Fc (H4H)) VH: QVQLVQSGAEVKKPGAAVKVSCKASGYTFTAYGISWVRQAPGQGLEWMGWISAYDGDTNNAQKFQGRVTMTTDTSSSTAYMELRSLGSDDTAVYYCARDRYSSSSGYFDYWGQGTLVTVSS VL: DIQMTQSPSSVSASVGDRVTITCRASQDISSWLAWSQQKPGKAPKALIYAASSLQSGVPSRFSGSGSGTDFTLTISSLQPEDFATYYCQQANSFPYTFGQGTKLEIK: Not met
- H2M1712N (antibody, mouse IgG2, V domains shown, Human variable domains, mouse IgG2 Fc (H2M)) VH: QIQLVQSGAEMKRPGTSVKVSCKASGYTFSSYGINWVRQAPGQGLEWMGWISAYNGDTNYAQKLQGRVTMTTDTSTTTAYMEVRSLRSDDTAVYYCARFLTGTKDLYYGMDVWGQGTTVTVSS VL: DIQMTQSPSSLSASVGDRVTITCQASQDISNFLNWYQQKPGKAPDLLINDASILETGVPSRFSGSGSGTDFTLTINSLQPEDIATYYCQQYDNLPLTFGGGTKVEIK: Met
